Let's look at some variants and their measured self-cleavage kobs at 160 uM GlcN6P.
B1: glmS ribozyme (parent)
chain: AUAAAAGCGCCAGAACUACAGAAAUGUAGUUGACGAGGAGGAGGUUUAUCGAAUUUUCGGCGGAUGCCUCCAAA

- Variants of: B1
- measurement notes: self-cleavage kobs at 160 uM GlcN6P; higher = faster cleavage; RNA array
- condition details: with glucosamine-6-phosphate
This sample holds only a part of the variants without activity.

{"mutations": "A64G C71G", "measurement qualifier": "=", "self-cleavage kobs at 160 uM GlcN6P (s⁻¹)": "6.24e-05"}
{"mutations": "G7C U55A A64U", "measurement qualifier": "<", "self-cleavage kobs at 160 uM GlcN6P (s⁻¹)": "1e-05"}
{"mutations": "G9A G35A", "measurement qualifier": "<", "self-cleavage kobs at 160 uM GlcN6P (s⁻¹)": "1e-05"}
{"mutations": "G29A U54G", "measurement qualifier": "=", "self-cleavage kobs at 160 uM GlcN6P (s⁻¹)": 0.000165}
{"mutations": "G29A A39U A42U", "measurement qualifier": "=", "self-cleavage kobs at 160 uM GlcN6P (s⁻¹)": "4.77e-05"}
{"mutations": "U30C U69G", "measurement qualifier": "=", "self-cleavage kobs at 160 uM GlcN6P (s⁻¹)": "7.31e-05"}
{"mutations": "C10U G35C", "measurement qualifier": "<", "self-cleavage kobs at 160 uM GlcN6P (s⁻¹)": "1e-05"}
{"mutations": "G41C", "measurement qualifier": "=", "self-cleavage kobs at 160 uM GlcN6P (s⁻¹)": "4.15e-05"}
{"mutations": "U31G G63A", "measurement qualifier": "<", "self-cleavage kobs at 160 uM GlcN6P (s⁻¹)": "1e-05"}
{"mutations": "C11G U31C C71U", "measurement qualifier": "<", "self-cleavage kobs at 160 uM GlcN6P (s⁻¹)": "1e-05"}
{"mutations": "A6G U47C C67G", "measurement qualifier": "<", "self-cleavage kobs at 160 uM GlcN6P (s⁻¹)": "1e-05"}
{"mutations": "G32C G40A", "measurement qualifier": "<", "self-cleavage kobs at 160 uM GlcN6P (s⁻¹)": "1e-05"}
{"mutations": "A6C G13U C58A A64C", "measurement qualifier": "<", "self-cleavage kobs at 160 uM GlcN6P (s⁻¹)": "1e-05"}
{"mutations": "G37A A39U U54C", "measurement qualifier": "=", "self-cleavage kobs at 160 uM GlcN6P (s⁻¹)": "8.28e-05"}
{"mutations": "C11G G60C", "measurement qualifier": "<", "self-cleavage kobs at 160 uM GlcN6P (s⁻¹)": "1e-05"}
{"mutations": "U31A U65A", "measurement qualifier": "=", "self-cleavage kobs at 160 uM GlcN6P (s⁻¹)": "9.46e-05"}
{"mutations": "C8U C10U C70G", "measurement qualifier": "=", "self-cleavage kobs at 160 uM GlcN6P (s⁻¹)": "8.73e-05"}
{"mutations": "G41U A42G", "measurement qualifier": "=", "self-cleavage kobs at 160 uM GlcN6P (s⁻¹)": "9.47e-05"}
{"mutations": "C34G U56A G62A C67U", "measurement qualifier": "<", "self-cleavage kobs at 160 uM GlcN6P (s⁻¹)": "1e-05"}
{"mutations": "G60A C67U", "measurement qualifier": "<", "self-cleavage kobs at 160 uM GlcN6P (s⁻¹)": "1e-05"}
{"mutations": "G32A G60A", "measurement qualifier": "<", "self-cleavage kobs at 160 uM GlcN6P (s⁻¹)": "1e-05"}
{"mutations": "G7A C11A A52U C70A", "measurement qualifier": "<", "self-cleavage kobs at 160 uM GlcN6P (s⁻¹)": "1e-05"}
{"mutations": "G9A A14U A36C U46G", "measurement qualifier": "<", "self-cleavage kobs at 160 uM GlcN6P (s⁻¹)": "1e-05"}
{"mutations": "U55A U69A", "measurement qualifier": "=", "self-cleavage kobs at 160 uM GlcN6P (s⁻¹)": "9.45e-05"}
{"mutations": "A6C G40U", "measurement qualifier": "<", "self-cleavage kobs at 160 uM GlcN6P (s⁻¹)": "1e-05"}
{"mutations": "C8G G66U", "measurement qualifier": "<", "self-cleavage kobs at 160 uM GlcN6P (s⁻¹)": "1e-05"}
{"mutations": "C8A C67G", "measurement qualifier": "<", "self-cleavage kobs at 160 uM GlcN6P (s⁻¹)": "1e-05"}
{"mutations": "A14C A15G C70U", "measurement qualifier": "=", "self-cleavage kobs at 160 uM GlcN6P (s⁻¹)": 0.000124}
{"mutations": "A15G C34U G63A", "measurement qualifier": "<", "self-cleavage kobs at 160 uM GlcN6P (s⁻¹)": "1e-05"}
{"mutations": "G60A C68G", "measurement qualifier": "=", "self-cleavage kobs at 160 uM GlcN6P (s⁻¹)": "8.43e-05"}
{"mutations": "G29A U46A A53U U56C", "measurement qualifier": "<", "self-cleavage kobs at 160 uM GlcN6P (s⁻¹)": "1e-05"}
{"mutations": "G7U C58G C68G", "measurement qualifier": "=", "self-cleavage kobs at 160 uM GlcN6P (s⁻¹)": 0.000633}
{"mutations": "A48C C50A A52G", "measurement qualifier": "<", "self-cleavage kobs at 160 uM GlcN6P (s⁻¹)": "1e-05"}
{"mutations": "C61U C71G", "measurement qualifier": "<", "self-cleavage kobs at 160 uM GlcN6P (s⁻¹)": "1e-05"}
{"mutations": "A39C G51C U55A", "measurement qualifier": "<", "self-cleavage kobs at 160 uM GlcN6P (s⁻¹)": "1e-05"}
{"mutations": "C11U U56G", "measurement qualifier": "=", "self-cleavage kobs at 160 uM GlcN6P (s⁻¹)": "4.58e-05"}
{"mutations": "G9A A12G A14G G35U", "measurement qualifier": "<", "self-cleavage kobs at 160 uM GlcN6P (s⁻¹)": "1e-05"}
{"mutations": "A12C U47G", "measurement qualifier": "=", "self-cleavage kobs at 160 uM GlcN6P (s⁻¹)": 0.000267}
{"mutations": "A12U U55G", "measurement qualifier": "=", "self-cleavage kobs at 160 uM GlcN6P (s⁻¹)": 0.00618}
{"mutations": "C8U A12C G43C U49C", "measurement qualifier": "<", "self-cleavage kobs at 160 uM GlcN6P (s⁻¹)": "1e-05"}
{"mutations": "U54G U55G", "measurement qualifier": "=", "self-cleavage kobs at 160 uM GlcN6P (s⁻¹)": 0.00148}
{"mutations": "G7U A12U C67U", "measurement qualifier": "<", "self-cleavage kobs at 160 uM GlcN6P (s⁻¹)": "1e-05"}
{"mutations": "G41A A48G", "measurement qualifier": "<", "self-cleavage kobs at 160 uM GlcN6P (s⁻¹)": "1e-05"}
{"mutations": "G51A A64C", "measurement qualifier": "<", "self-cleavage kobs at 160 uM GlcN6P (s⁻¹)": "1e-05"}
{"mutations": "A39U G41A", "measurement qualifier": "=", "self-cleavage kobs at 160 uM GlcN6P (s⁻¹)": "5.88e-05"}
{"mutations": "A14G U47G", "measurement qualifier": "=", "self-cleavage kobs at 160 uM GlcN6P (s⁻¹)": 0.00132}
